The reported measurements were obtained from the MegaScale stability set (Tsuboyama et al. 2023).

B1: EHEE_rd4_0726 (parent)
chain: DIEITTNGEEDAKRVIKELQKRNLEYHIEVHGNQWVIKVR

Variants of: B1
assayNotes: folding stability dG (cDNA display proteolysis); higher = more stable
protocolConditions: PBS, room temperature
Label rule, in plain words: folding stability dG of 2 kcal/mol and up is yes, under 2 kcal/mol is no.

Here's what some known entries look like.
mutationSpec	assignedCategory
L24D	no
R14T	no
L24N	no
G8P	no
K38H	yes
W35T	no
W35G	no
K17E	yes
D11A	yes
H31A	no

Asked: # bool: folding stability dG of "L24M" >= 2 kcal/mol
Given back: yes

Asked: # bool: folding stability dG of "H31N" >= 2 kcal/mol
Given back: yes

Asked: # bool: folding stability dG of "V30G" >= 2 kcal/mol
Given back: no

Asked: # bool: folding stability dG of "L19Y" >= 2 kcal/mol
Given back: no

Asked: # bool: folding stability dG of "R14K" >= 2 kcal/mol
Given back: yes
